# Protocol details: Solubility of prodrug in isopropyl myristate (IPM)
# Conditions: isopropyl myristate, organic solvent or mixture
Property name: log10 solubility (log10 of the value in µg/mL)

>  <Structure>
CCCC(=O)n1c(=O)[nH]cc(F)c1=O

>  <log10 solubility>
3.65

$$$$
>  <Structure>
CC(=O)n1c(=O)[nH]cc(F)c1=O

>  <log10 solubility>
1.87

$$$$
>  <Structure>
CC(=O)n1cc(F)c(=O)n(C(C)=O)c1=O

>  <log10 solubility>
3.75

$$$$
>  <Structure>
CC(=O)n1cc(F)c(=O)[nH]c1=O

>  <log10 solubility>
3.58

$$$$
>  <Structure>
CCCCCCOC(=O)n1cc(F)c(=O)[nH]c1=O

>  <log10 solubility>
3.94

$$$$
>  <Structure>
CCC(=O)n1cc(F)c(=O)[nH]c1=O

>  <log10 solubility>
3.83

$$$$
>  <Structure>
CCCCC(=O)n1cc(F)c(=O)n(C(=O)CCCC)c1=O

>  <log10 solubility>
5.55

$$$$
